FYI, the data here is from ChEMBL document CHEMBL1144383.

- Tested on: Matrix metalloproteinase-14
- test-details: Inhibition of Matrix metalloprotease-14 in MMPi assay
quantity: IC50

• CC(C)ON([C@H](CCNC(=O)CCCNC(=O)c1cccc(C(=O)NCCCC(=O)NCC[C@H](C(=O)NO)N(OC(C)C)S(=O)(=O)c2ccc(-c3ccccc3)cc2)c1)C(=O)NO)S(=O)(=O)c1ccc(-c2ccccc2)cc1 = 34 nM

====

- study-system: Matrix metalloproteinase-9 (Homo sapiens)
- Sequence (P14780 whole entry): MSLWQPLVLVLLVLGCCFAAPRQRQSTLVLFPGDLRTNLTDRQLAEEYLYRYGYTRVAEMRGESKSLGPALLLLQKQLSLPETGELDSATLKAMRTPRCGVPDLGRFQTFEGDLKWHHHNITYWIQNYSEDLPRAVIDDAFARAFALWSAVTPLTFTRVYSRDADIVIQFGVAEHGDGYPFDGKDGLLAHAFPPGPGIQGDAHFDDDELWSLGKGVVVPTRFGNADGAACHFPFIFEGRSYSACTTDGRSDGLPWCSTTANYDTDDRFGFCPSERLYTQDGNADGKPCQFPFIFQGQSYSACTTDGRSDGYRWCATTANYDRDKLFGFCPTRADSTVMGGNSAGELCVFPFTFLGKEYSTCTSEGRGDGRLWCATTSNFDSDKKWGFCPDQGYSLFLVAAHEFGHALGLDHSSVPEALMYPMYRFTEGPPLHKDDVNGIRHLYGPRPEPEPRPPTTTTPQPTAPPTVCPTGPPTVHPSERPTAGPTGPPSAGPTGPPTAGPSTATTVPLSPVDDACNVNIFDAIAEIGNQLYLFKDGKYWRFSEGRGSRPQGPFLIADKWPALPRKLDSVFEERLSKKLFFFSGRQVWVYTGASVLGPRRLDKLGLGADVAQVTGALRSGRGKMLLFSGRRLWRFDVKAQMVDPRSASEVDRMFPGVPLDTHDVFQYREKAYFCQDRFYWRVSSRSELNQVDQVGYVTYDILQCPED
pIC50: −log10 of the molar value.
Measured pIC50 by item
quantity: pIC50

* CC(C)ON([C@H](CCNC(=O)c1cccc(C(=O)NCC[C@H](C(=O)NO)N(OC(C)C)S(=O)(=O)c2ccc(-c3ccccc3)cc2)c1)C(=O)NO)S(=O)(=O)c1ccc(-c2ccccc2)cc1 | 6.01
* CC(C)ON([C@H](CCNC(=O)CCCNC(=O)c1cccc(C(=O)NCCCC(=O)NCC[C@H](C(=O)NO)N(OC(C)C)S(=O)(=O)c2ccc(-c3ccccc3)cc2)c1)C(=O)NO)S(=O)(=O)c1ccc(-c2ccccc2)cc1 | 8.08
